- target.system: T1, EsCas13d, nuclease-dead (Eubacterium siraeum, UniProt B0MS50, R295A;H300A;R849A;H854A)
- T1 sequence: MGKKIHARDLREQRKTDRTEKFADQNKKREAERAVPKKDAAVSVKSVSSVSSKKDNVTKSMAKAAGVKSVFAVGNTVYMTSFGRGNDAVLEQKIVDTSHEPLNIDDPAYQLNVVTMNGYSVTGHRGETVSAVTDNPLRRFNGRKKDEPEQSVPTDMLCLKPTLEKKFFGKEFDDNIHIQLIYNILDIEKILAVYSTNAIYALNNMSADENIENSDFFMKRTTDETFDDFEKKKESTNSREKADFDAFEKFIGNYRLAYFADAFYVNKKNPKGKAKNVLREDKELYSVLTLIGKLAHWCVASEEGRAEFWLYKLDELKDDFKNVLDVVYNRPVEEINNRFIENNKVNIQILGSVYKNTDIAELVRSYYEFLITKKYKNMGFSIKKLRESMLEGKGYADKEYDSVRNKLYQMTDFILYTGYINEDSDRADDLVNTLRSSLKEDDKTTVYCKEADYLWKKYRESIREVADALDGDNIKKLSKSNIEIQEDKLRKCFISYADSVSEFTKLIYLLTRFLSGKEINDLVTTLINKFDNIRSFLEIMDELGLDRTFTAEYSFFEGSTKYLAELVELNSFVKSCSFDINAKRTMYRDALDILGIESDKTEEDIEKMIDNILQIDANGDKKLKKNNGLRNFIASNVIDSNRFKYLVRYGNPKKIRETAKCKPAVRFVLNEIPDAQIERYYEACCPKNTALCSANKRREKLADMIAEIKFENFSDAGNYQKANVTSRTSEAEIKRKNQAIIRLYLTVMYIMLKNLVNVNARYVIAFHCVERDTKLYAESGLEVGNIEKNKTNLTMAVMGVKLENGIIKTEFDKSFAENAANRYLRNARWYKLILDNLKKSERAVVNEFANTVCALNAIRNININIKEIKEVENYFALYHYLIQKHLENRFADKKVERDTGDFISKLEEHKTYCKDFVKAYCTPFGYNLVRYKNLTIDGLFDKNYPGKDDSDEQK
- protocol.details: crRNA (strand 1, pre-loaded); Mg2+; 40 mM Tris-HCl pH 7.5, 150 mM NaCl, 6 mM MgCl2, 1 mM DTT, 0.1% Tween-20, 0.2 mg/ml BSA; 25 C; 10 min per concentration, then washed
- run.conditions: tags: His6-TwinStrep-SUMO cleaved; N-terminal SNAP kept (SNAP-Surface 488); label: 3' end held by stalled T7 RNA polymerase
test.readout: Kd (nM)
One number for each entry, in nM.

[
  {
    "binder": "target 2 MT 5'PFS GUA 3'PFS CCA (mixed) RNA 1: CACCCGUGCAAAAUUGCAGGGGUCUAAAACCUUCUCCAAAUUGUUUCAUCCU RNA 2: GGGAAUGGAUCCACAUCUACGAAUUCGUAAGGAUGAAACAAUUUGGAGAAGCCAAGAUCGGAAGAGCACACGU",
    "Kd, nM": 17.3
  },
  {
    "binder": "target 1 insA 3' of 8,insU 3' of 2 (mixed) RNA 1: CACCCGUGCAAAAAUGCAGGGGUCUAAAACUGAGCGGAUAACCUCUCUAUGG RNA 2: GGGAAUGGAUCCACAUCUACGAAUUCGUACCAUAGAGAGGUUAUACCGCUCUACCGAGAUCGGAAGAGCACACGU",
    "Kd, nM": 22.5
  },
  {
    "binder": "target 2 MT 5'PFS CAU 3'PFS UAA (mixed) RNA 1: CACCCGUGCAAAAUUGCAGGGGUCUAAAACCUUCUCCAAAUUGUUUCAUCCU RNA 2: GGGAAUGGAUCCACAUCUACGAAUUCCAUAGGAUGAAACAAUUUGGAGAAGUAAAGAUCGGAAGAGCACACGU",
    "Kd, nM": 4.7
  }
]

Moving on to another binder below.
Incoming: Item target 1 insG 3' of 1 (mixed) RNA 1: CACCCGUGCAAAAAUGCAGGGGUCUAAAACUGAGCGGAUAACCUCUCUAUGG RNA 2: GGGAAUGGAUCCACAUCUACGAAUUCGUACCAUAGAGAGGUUAUCCGCUCAGCCGAGAUCGGAAGAGCACACGU has what recorded Kd?
Outgoing: 9
